# Test system: ACHN renal
# procedureText: NCI tumour cell line growth inhibition, 48 h; in the data active means GI50 below about 0.43 µM; inactive means the rest
Classes used: 1 (yes) (active), 0 (no) (inactive)

| structureString | groupLabel |
| --- | --- |
| CC(=O)OCC1O[C@@H]([S-])C(OC(C)=O)[C@H](OC(C)=O)[C@@H]1OC(C)=O.[Au+].c1ccc(CN2[CH-]N(Cc3ccccc3)C(c3ccccc3)=C2c2ccccc2)cc1 | 0 (no) |
| COc1ccc(-c2c(-c3cc(OC)c4c(c3)OCO4)noc2N)cc1 | 1 (yes) |
| N[C@@H]1CCCN(c2c(/C=C3\SC(=O)NC3=O)cccc2-c2ccccc2)C1 | 0 (no) |
| COc1ccc(-c2cc(-c3cc(OC)c(OC)c(OC)c3)c(C#N)c(N3CCOCC3)n2)cc1O | 0 (no) |
| COc1cnc2c(c1)C(=O)c1c-2n(CCCN2CCCC2)c(=O)c2cc(F)ccc12 | 1 (yes) |
| CCCCCCCC(=O)SCC/C=C/[C@@H]1CC(=O)NCc2nc(co2)C2=N[C@@](C)(CS2)C(=O)N[C@@H](C(C)C)C(=O)O1 | 1 (yes) |
| C#Cc1cccc(Nc2nc3ccc([N+](=O)[O-])cc3nc2Nc2cccc(C#C)c2)c1 | 1 (yes) |
| O=C1CCc2c(sc3[nH]c(=S)n(Cc4ccccc4)c(=O)c23)C1 | 0 (no) |
| COc1cc2nc3cc([N+](=O)[O-])ccc3c(NCCCNCC(C)(C)O)c2cc1OC | 0 (no) |
| CCCCn1sc(=O)n(Cc2ccc(CNC(=O)OCc3ccc4c(Br)cc(Br)c(O)c4n3)cc2)c1=O | 0 (no) |
| COc1ccc(Cn2cc3c(c2-c2cc(OC)c(OC)c(OC)c2)CCc2cnoc2-3)cc1[N+](=O)[O-] | 0 (no) |

* * *

# Tested on: K-562 leukemia
# procedureText: NCI tumour cell line growth inhibition, 48 h; in the data active = GI50 below about 0.43 µM; inactive = the rest
Classes used: YES (active), NO (inactive)

| compound | studySystem | groupLabel |
| --- | --- | --- |
| O=C([O-])c1ccc(C(=O)[O-])cc1.O=C([O-])c1ccc(C(=O)[O-])cc1.[Mo+2].[Mo+2] | K-562 leukemia | NO |
| COc1ccc2c(c1)[n+](=O)c(C(=O)/C=C/c1cc(OC)c(OC)c(OC)c1)c(C)n2[O-] | K-562 leukemia | NO |
| CC1=C[S+](c2ccccc2)c2cccc3cc4ccccc4c1c23 (stereo not drawn) | K-562 leukemia | YES |

* * *

# Tested on: EKVX NSCLC
# procedureText: NCI tumour cell line growth inhibition, 48 h; in the data active = GI50 below about 0.43 µM; inactive = the rest
Classes used: class 1 for active, class 0 for inactive

| compound | groupLabel |
| --- | --- |
| O=C(Oc1ccccc1Cl)c1ccccc1Nc1ccnc(C(F)(F)F)c1 | class 0 |
| COc1ccc(C(=O)c2cc3c(N)c(C(=O)Nc4cccc(Cl)c4C)sc3nc2C)cc1 | class 1 |
| C/C(Cc1ccc(Cl)cc1)=C(/c1ccc(Cl)cc1)c1ccc(OCCN(C)C)cc1 | class 0 |
| Nc1nnc(Cn2c(-c3ccccc3)nc3ccc(Br)cc3c2=O)s1 | class 0 |
| Cc1nc(N)sc1C(=O)Nc1cc(C(=O)NCCCN(C)C)n(C)c1 | class 0 |
| CC1=C[S+](c2ccccc2)c2cccc3cc4ccccc4c1c23 (centres undefined) | class 1 |
| COc1ccc(C(=O)COc2cccc(/C=C3\CSc4ccc(C)cc4C3=O)c2)cc1 | class 0 |
| CN(C[C@@H]1COCCO1)S(=O)(=O)Nc1ccc2ccc3ncc(-c4cnn(C)c4)cc3c(=O)c2c1 | class 0 |
| CCCCCCCCCCCCOC1C(CNC(=O)C2OC3OC(C)(C)OC3C2NC(=O)CN2CCCCCC2)OC2OC(C)(C)OC21 (centres undefined) | class 0 |
| C=C1C(=O)O[C@H]2[C@H]1CC/C(COC(=O)c1ccc(C#N)cc1)=C\CC[C@@]1(C)O[C@@H]21 | class 0 |
| Cc1nc2n(c(=O)c1CCN1CCC(c3noc4cc(F)ccc34)CC1)CCCC2 | class 0 |
| O=[N+]([O-])c1ccc2ncccc2c1Cl | class 0 |
| C#CCOc1cccc(Nc2ncnc3ccc(NC(=O)CCl)cc23)c1 | class 0 |
| Cc1ccc(S(=O)(=O)Cc2nc(-c3ccc(C(=O)NCc4cccnc4)cc3)oc2C)cc1 | class 0 |
| COc1ccc2c(c1)[n+](=O)c(C(=O)/C=C/c1cc(OC)c(OC)c(OC)c1)c(C)n2[O-] | class 0 |
| C=C1C(=O)O[C@H]2[C@H]1CC(=O)/C(C)=C/CC[C@@]1(C)O[C@@H]21 | class 0 |
| COc1cc2nc3cc([N+](=O)[O-])ccc3c(NCCCNCC(C)(C)O)c2cc1OC | class 0 |
| CCCCC#CC#Cc1cccc(=O)o1 | class 0 |
| C[C@H]1C(Oc2ccc(O)cc2)OC2OC3(C)CCC4[C@H](C)CCC1C24OO3 (some centres undefined) | class 0 |

* * *

# System: HOP-92 NSCLC
# procedureText: NCI tumour cell line growth inhibition, 48 h

| compound | GI50 |
| --- | --- |
| O=C1c2c(O)cc(O)cc2OC(c2ccc(O)cc2O)C1O (stereo unspecified) | > 100 µM |
| Cc1ccc(S(=O)(=O)Cc2nc(-c3ccc(C(=O)NCc4cccnc4)cc3)oc2C)cc1 | 13 µM |
| O=C([O-])c1ccc(C(=O)[O-])cc1.O=C([O-])c1ccc(C(=O)[O-])cc1.[Mo+2].[Mo+2] | 99.8 µM |
| COc1ccc(-c2c(-c3cc(OC)c4c(c3)OCO4)noc2N)cc1 | 3.72 µM |
| Cc1cc(C)nc(SC2=C(Nc3cccc(Cl)c3C)C(=O)N(Cc3ccccc3)C2=O)n1 | > 160 µM |
| Cc1nc2n(c(=O)c1CCN1CCC(c3noc4cc(F)ccc34)CC1)CCCC2 | > 50 µM |

* * *

# System: TK-10 renal
# procedureText: NCI tumour cell line growth inhibition, 48 h

| compound | TGI |
| --- | --- |
| NC(=O)NC(=O)c1cccc(NC(=O)CBr)c1 | 0.281 µM |
| CSc1nc2[nH]c(=O)c(C)nc2c(=O)[nH]1 | > 100 µM |
| O=C(O)CCCOc1cc(-c2ccccc2F)nc2cc3c(cc12)OCO3 | > 100 µM |
| CCOC(=O)c1cnc(-n2[nH]c3c(c2=O)CCCC3)[nH]c1=O | > 100 µM |
| Cn1c2cc(O)cc(O)c2c(=O)c2c([N+](=O)[O-])cccc21 | > 100 µM |
| CC(=O)Nc1ccc(C(=O)NN2C(=O)C(Cl)C2c2ccccc2O)cc1 (configuration not stated) | > 100 µM |
| O=C(c1ccccc1)c1nc2ccc(C(F)(F)F)cc2[n+]([O-])c1C(F)(F)F | > 100 µM |
| CN(C)C(=O)Oc1ccc(-c2cn3cc(NC(=O)c4ccccc4)ccc3n2)cc1 | > 100 µM |
| C/C(Cc1ccc(Cl)cc1)=C(/c1ccc(Cl)cc1)c1ccc(OCCN(C)C)cc1 | 10.8 µM |
| COc1ccc(-c2cc(=O)c3c(O)cc(C)cc3o2)cc1OC | > 100 µM |
| CN(CCCNC(=O)c1nn(-c2ccc(Cl)cc2Cl)c2c1ccc1ccccc12)CCCNC(=O)c1nn(-c2ccc(Cl)cc2Cl)c2c1ccc1ccccc12 | 3.41 µM |
| CC(=O)OC1CC[C@]2(C)C3CC[C@@]4(C)C(CCC4[C@H](C)CCCC(C)C)[C@@H]3CCC2(Br)C1 (some centres not stated) | 26.5 µM |

* * *

# Tested on: A498 renal
# procedureText: NCI tumour cell line growth inhibition, 48 h; in the data active means GI50 below about 0.43 µM; inactive means the rest
Classes used: active, inactive

| compound | groupLabel |
| --- | --- |
| C/C(=C\c1ccc(Cl)c(Cl)c1)[N+](=O)[O-] | inactive |
| COc1ccc2c(c1)[n+](=O)c(C(=O)/C=C/c1cc(OC)c(OC)c(OC)c1)c(C)n2[O-] | inactive |
| O=C(c1ccccc1)c1nc2ccc(C(F)(F)F)cc2[n+]([O-])c1C(F)(F)F | inactive |
| CC(=O)[O-].O=C([CH-]C(=O)c1ccccc1)c1ccccc1.O=C([CH-]C(=O)c1ccccc1)c1ccccc1.[Y+3] | inactive |
| O=C(Oc1ccccc1Cl)c1ccccc1Nc1ccnc(C(F)(F)F)c1 | inactive |
| CCCSC1=NC2C(N(CC)C(=O)N2CC)N1/N=C/C=C/c1ccccc1[N+](=O)[O-] (centres undefined) | inactive |
| CN(C[C@@H]1COCCO1)S(=O)(=O)Nc1ccc2ccc3ncc(-c4cnn(C)c4)cc3c(=O)c2c1 | inactive |
| CCOC(=O)Nc1ccc(-c2nc(-c3cccc(OC)c3)c(-c3ccnc(Br)c3)[nH]2)cc1 | inactive |
| N[C@@H]1CCCN(c2c(/C=C3\SC(=O)NC3=O)cccc2-c2ccccc2)C1 | inactive |
| COc1ccc(-c2csc(-c3cc(Cl)cc(Cl)c3Cl)n2)cc1 | inactive |
| C[C@H]1C(Oc2ccc(O)cc2)OC2OC3(C)CCC4[C@H](C)CCC1C24OO3 (some centres undefined) | inactive |
| O=C(OCc1ccc2c(Cl)cc(Cl)c(O)c2n1)c1cc2ccccc2[nH]1 | inactive |
| O=C(CCCCCCSc1nc(-c2ccc(Cl)cc2)cc(-c2ccc(Cl)cc2)n1)NO | inactive |
| C#Cc1cccc(Nc2nc3ccc([N+](=O)[O-])cc3nc2Nc2cccc(C#C)c2)c1 | active |
| CNCCCNc1nc2ccccc2c2c(=O)c3cc(Cl)ccc3sc12 | inactive |
| CC1=C[S+](c2ccccc2)c2cccc3cc4ccccc4c1c23 (centres undefined) | inactive |
| CN(CCCl)c1ccc(/C=C/C2=[N+](C)c3ccccc3C2(C)C)cc1 | inactive |
| O=C1c2c(O)cc(O)cc2OC(c2ccc(O)cc2O)C1O (centres undefined) | inactive |
| CCC1CCc2nc3sc(C(=O)Nc4ccccc4C)c(N)c3cc2C1 (centres undefined) | active |
